# Test system: 422866-222-R5-J1-PDC complex spheroid viability;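 note: spheroids exposed to compounds for one week before readout; percent of DMSO vehicle wells luminescence so 100% = untreated viability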
# Experimental Details: Anticancer human tumor 422866-222-R5-J1-PDC patient-derived pancreatic adenocarcinoma cell line growth inhibition [POLQ]
# Particulars: second compound 0.316 µM; first compound 0.00316 µM; stronger effect = lower value
Quick reference for viability, T/C among some compounds

Compound: Cn1ncnc1[C@H]1c2n[nH]c(=O)c3cc(F)cc(c23)N[C@@H]1c1ccc(F)cc1 + COC1C(OC(N)=O)C(O)C(Oc2ccc3c(O)c(NC(=O)c4ccc(O)c(CC=C(C)C)c4)c(=O)oc3c2C)OC1(C)C
viability, T/C / %: 98.8

Compound: COc1cccc(OCCCN)c1-c1cc(Nc2cnc(C#N)cn2)n[nH]1 + Nc1ccc(C#CCN(C(=O)Cc2ncc(C(F)(F)F)cc2C(F)(F)F)c2ccc(F)cc2)nn1
viability, T/C / %: 60.3

Compound: Cn1ncnc1[C@H]1c2n[nH]c(=O)c3cc(F)cc(c23)N[C@@H]1c1ccc(F)cc1 + Nc1ccc(C#CCN(C(=O)Cc2ncc(C(F)(F)F)cc2C(F)(F)F)c2ccc(F)cc2)nn1
viability, T/C / %: 86.1

Compound: CC[C@@]1(O)C(=O)OCc2c1cc1n(c2=O)Cc2cc3c(CN(C)C)c(O)ccc3nc2-1 + Nc1ccc(C#CCN(C(=O)Cc2ncc(C(F)(F)F)cc2C(F)(F)F)c2ccc(F)cc2)nn1
viability, T/C / %: 87

Compound: CCc1c2c(nc3ccc(O)cc13)-c1cc3c(c(=O)n1C2)COC(=O)[C@]3(O)CC + Cc1cccc(N(C)C(=O)C2C(O)CCN2c2nc(C)cc(C(F)(F)F)c2C#N)c1
viability, T/C / %: 46.2

Compound: C=CCn1c(=O)c2cnc(Nc3ccc(N4CCN(C)CC4)cc3)nc2n1-c1cccc(C(C)(C)O)n1 + Nc1ccc(C#CCN(C(=O)Cc2ncc(C(F)(F)F)cc2C(F)(F)F)c2ccc(F)cc2)nn1
viability, T/C / %: 97

Compound: CCc1c2c(nc3ccc(O)cc13)-c1cc3c(c(=O)n1C2)COC(=O)[C@]3(O)CC + COC1C(OC(N)=O)C(O)C(Oc2ccc3c(O)c(NC(=O)c4ccc(O)c(CC=C(C)C)c4)c(=O)oc3c2C)OC1(C)C
viability, T/C / %: 41.1

Compound: COc1cccc(OCCCN)c1-c1cc(Nc2cnc(C#N)cn2)n[nH]1 + Cc1cccc(N(C)C(=O)C2C(O)CCN2c2nc(C)cc(C(F)(F)F)c2C#N)c1
viability, T/C / %: 74.4

Compound: CCc1c2c(nc3ccc(O)cc13)-c1cc3c(c(=O)n1C2)COC(=O)[C@]3(O)CC + Nc1ccc(C#CCN(C(=O)Cc2ncc(C(F)(F)F)cc2C(F)(F)F)c2ccc(F)cc2)nn1
viability, T/C / %: 35.8

Compound: C=CCn1c(=O)c2cnc(Nc3ccc(N4CCN(C)CC4)cc3)nc2n1-c1cccc(C(C)(C)O)n1 + COC1C(OC(N)=O)C(O)C(Oc2ccc3c(O)c(NC(=O)c4ccc(O)c(CC=C(C)C)c4)c(=O)oc3c2C)OC1(C)C
viability, T/C / %: 97.4

Compound: C=CCn1c(=O)c2cnc(Nc3ccc(N4CCN(C)CC4)cc3)nc2n1-c1cccc(C(C)(C)O)n1 + Cc1cccc(N(C)C(=O)C2C(O)CCN2c2nc(C)cc(C(F)(F)F)c2C#N)c1
viability, T/C / %: 108

Compound: CC[C@@]1(O)C(=O)OCc2c1cc1n(c2=O)Cc2cc3c(CN(C)C)c(O)ccc3nc2-1 + Cc1cccc(N(C)C(=O)C2C(O)CCN2c2nc(C)cc(C(F)(F)F)c2C#N)c1
viability, T/C / %: 98.2

Compound: Cn1ncnc1[C@H]1c2n[nH]c(=O)c3cc(F)cc(c23)N[C@@H]1c1ccc(F)cc1 + Cc1cccc(N(C)C(=O)C2C(O)CCN2c2nc(C)cc(C(F)(F)F)c2C#N)c1
viability, T/C / %: 90.6

Compound: COc1cccc(OCCCN)c1-c1cc(Nc2cnc(C#N)cn2)n[nH]1 + COC1C(OC(N)=O)C(O)C(Oc2ccc3c(O)c(NC(=O)c4ccc(O)c(CC=C(C)C)c4)c(=O)oc3c2C)OC1(C)C
viability, T/C / %: 48.5

Compound: CC[C@@]1(O)C(=O)OCc2c1cc1n(c2=O)Cc2cc3c(CN(C)C)c(O)ccc3nc2-1 + COC1C(OC(N)=O)C(O)C(Oc2ccc3c(O)c(NC(=O)c4ccc(O)c(CC=C(C)C)c4)c(=O)oc3c2C)OC1(C)C
viability, T/C / %: 85.4
